Numbers sourced from paper PMC6960228.

# Assay Method Text: Pharmacokinetic study
# Assay type: in vivo, Sprague-Dawley rats
# Assay Setup: female, Sprague-Dawley, plasma, iv; i.v. (2 mg/kg), rat; read-out: CLz (converted)
Measured Endpoint: clearance (mL/min/kg)
Give your result in mL/min/kg as a bare value.

Req: In one line, give reported clearance of the entry CCOC1c2c(ccc3c2OCO3)-c2ccc3cc4c(cc3c2N1C)OCO4 (stereo not shown) .
Resp: 9.32

---

# Assay Method Text: Pharmacokinetic study
# Type: in vivo, Sprague-Dawley rats
# Assay Setup: female, Sprague-Dawley, plasma, po; i.g. (15 mg/kg), rat
Measured Endpoint: half-life (h)
Give your result in h as a bare value.

Req: In one line, give reported half-life of the entry CCOC1c2c(ccc3c2OCO3)-c2ccc3cc4c(cc3c2N1C)OCO4 (stereo not shown) [Eth, Ethoxysanguinarine] .
Resp: 4.05
